TEST_NAME: Permeability across basolateral to apical side in human Caco2 cells
Format: ADME, cell-based
EXPERIMENTAL_CONDITIONS: Caco-2, read-out: permeability
TEST_READOUT: Papp B→A (×10⁻⁶ cm/s)
Your answer is read as ×10⁻⁶ cm/s, so omit the unit and give the number.

GET /values?readout=Papp B→A&item= `COc1cc(Nc2nc3n(n2)CCC(=O)N3Cc2ccccc2)ccc1-n1cnc(C)c1`
12

GET /values?readout=Papp B→A&item= COc1cc(Nc2nc3n(n2)CCCC3c2ccccc2)ccc1-n1cnc(C)c1 (stereo not drawn)
13

GET /values?readout=Papp B→A&item= `COc1cc(Nc2nc3n(n2)CCC(=O)N3Cc2ccccc2C)ccc1-c1noc(C)n1`
12

GET /values?readout=Papp B→A&item= `COc1cc(Nc2nc3n(n2)CCC(=O)N3Cc2ccccc2C)ccc1-c1cnnc(C)c1`
6

GET /values?readout=Papp B→A&item= COc1cc(Nc2nc3n(n2)C(C)CC(=O)N3Cc2ccccc2)ccc1-n1cnc(C)c1 (stereo in doubt; 19B)
13

GET /values?readout=Papp B→A&item= COc1cc(Nc2nc3n(n2)C(c2ccccc2)CCN3CC(C)(C)O)ccc1-n1cnc(C)c1 (stereo not drawn)
19

GET /values?readout=Papp B→A&item= `COc1cc(Nc2nc3n(n2)CCC(=O)N3Cc2ccccc2C)ccc1-c1ccnnc1`
22

GET /values?readout=Papp B→A&item= COc1cc(Nc2nc3n(n2)C(C)CC(=O)N3CC2CC(F)(F)C2)ccc1-n1cnc(C)c1 (stereo not drawn)
19

----------
Exercise: state measured bioavailability for each of the molecules provided.
TEST_NAME: Oral bioavailability in C57BL/6 mouse at 10 umol/kg
Format: ADME, organism-based
EXPERIMENTAL_CONDITIONS: in vivo
Your answer is read as %, so omit the unit and give the number.

GET /values?readout=bioavailability&item= COc1cc(Nc2nc3n(n2)C(C2CC2)CCN3CC(C)(C)O)ccc1-n1cnc(C)c1 (stereo in doubt; 42A)
91

GET /values?readout=bioavailability&item= COc1cc(Nc2nc3n(n2)C(C)CC(=O)N3Cc2ccccc2)ccc1-n1cnc(C)c1 (stereo in doubt; 19B)
32

----------
TEST_NAME: Half life in C57BL/6 mouse at 3 umol/kg, iv
Type: ADME, organism-based
EXPERIMENTAL_CONDITIONS: in vivo
TEST_READOUT: half-life (min)
Your answer is read as min, so omit the unit and give the number.

GET /values?readout=half-life&item= COc1cc(Nc2nc3n(n2)C(C2CC2)CCN3CC(C)(C)O)ccc1-n1cnc(C)c1 (stereo in doubt; 42A)
54

GET /values?readout=half-life&item= COc1cc(Nc2nc3n(n2)C(C)CC(=O)N3Cc2ccccc2)ccc1-n1cnc(C)c1 (stereo in doubt; 19B)
36

----------
TEST_NAME: Solubility of the compound
Type: physicochemical
EXPERIMENTAL_CONDITIONS: read-out: solubility
TEST_READOUT: solubility (µM)
Your answer is read as µM, so omit the unit and give the number.

GET /values?readout=solubility&item= COc1cc(Nc2nc3n(n2)C(C)CCN3CCC(C)(C)O)ccc1-n1cnc(C)c1 (stereo not drawn)
380

GET /values?readout=solubility&item= `COc1cc(Nc2nc3n(n2)CCC(=O)N3Cc2ccccc2C)ccc1-c1cc(C)cnn1`
170

GET /values?readout=solubility&item= `COc1cc(Nc2nc3n(n2)CCC(=O)N3Cc2ccccc2C)ccc1-c1noc(C)n1`
50

GET /values?readout=solubility&item= COc1cc(Nc2nc3n(n2)CC(C)(O)CN3Cc2ccccc2)ccc1-n1cnc(C)c1 (stereo not drawn)
160

GET /values?readout=solubility&item= `COc1cc(Nc2nc3n(n2)C(C)(C)CC(=O)N3Cc2ccc(F)cc2)ccc1-n1cnc(C)c1`
2
